Target: unphosphorylated VEGF-R2Δ50 (FLVK) (Homo sapiens, UniProt P35968, DEL940-989/E990V)
Construct: VEGF-R2Δ50 contains residues 806-939 and 990-1171
Sequence (P35968 with tags, fused parts or gaps DEL940-989/E990V limits assumed): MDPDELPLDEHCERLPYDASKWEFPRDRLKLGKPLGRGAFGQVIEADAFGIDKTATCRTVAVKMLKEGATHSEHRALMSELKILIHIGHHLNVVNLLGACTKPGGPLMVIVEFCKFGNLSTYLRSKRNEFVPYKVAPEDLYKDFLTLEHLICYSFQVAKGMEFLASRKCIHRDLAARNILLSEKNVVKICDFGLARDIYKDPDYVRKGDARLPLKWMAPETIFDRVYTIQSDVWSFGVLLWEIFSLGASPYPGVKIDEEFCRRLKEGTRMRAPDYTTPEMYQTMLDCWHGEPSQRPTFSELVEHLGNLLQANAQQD
Assay: VEGF-R2 coupled spectrophotometric assay, unphosphorylated construct (FLVK)
Experimental: This construct determines the ability of a test compound to inhibit tyrosine kinase activity. […] The production of ADP from ATP that accompanies phosphoryl transfer was coupled to oxidation of NADH using phosphoenolpyruvate (PEP) and a system having pyruvate kinase (PK) and lactic dehydrogenase (LDH). The oxidation of NADH was monitored by following the decrease of absorbance at 340 nm ([…]=6.22 cm^−1 mM^−1) using a Beckman DU 650 spectrophotometer. […]
pKi: −log10 of the molar value.
pKi vs 9: at or above is yes (1), below is no (0).

molecule="CNC(=O)n1c(C)cc2cc(Nc3ccnc4cc(C(=O)N5CC(F)[C@H](O)C5)sc34)ccc21 (stereo partly drawn) [Example 7b]" group="yes (1)"
molecule="Cc1cc2cc(Oc3ccnc4cc(C(=O)N5CC[C@@H](N(C)C)C5)sc34)ccc2n1C(=O)NCCCO [Example 8i]" group="yes (1)"
molecule="Cc1cc2cc(Nc3ccnc4cc(C(=O)N5C[C@H](O)C[C@H]5C(C)(C)O)sc34)ccc2n1C(=O)NC1CC1 [Example 3e]" group="no (0)"

pKi >= 9 for CO[C@H]1CCN(C(=O)c2cc3nccc(Oc4ccc5c(c4)cc(C)n5C(=O)NCCCO)c3s2)C1 [Example 9b] ?
yes (1)

Then what about the molecule CNC(=O)n1c(C)cc2cc(Nc3ncnc4sc(C(=O)N5CCC[C@H]5COC)cc34)ccc21 [Example 12b] ?
no (0)

Then what about the molecule C#CCNC(=O)n1c(C)cc2c(F)c(Oc3ccnc4cc(C(=O)N5CCC(O)C5)sc34)ccc21 (stereo in doubt) [Example 5k] ?
yes (1)

Then what about the molecule CO[C@H]1CCN(C(=O)c2cc3nccc(Oc4ccc5c(c4)cc(C)n5C(=O)NCCO)c3s2)C1 [Example 9c] ?
no (0)

Then what about the molecule CCOC(=O)c1cc2c(Nc3ccc4c(c3)cc(C)n4C(=O)NC)ncnc2s1 [Example 12a] ?
no (0)

Then what about the molecule CNC(=O)n1c(C)cc2cc(Nc3cccc4cc(C(=O)N5C[C@H](O)C[C@H]5CO)sc34)ccc21 [Example 3i] ?
no (0)

Then what about the molecule Cc1cc2cc(Oc3ccnc4cc(C(=O)N5CC[C@@H](O)C5)sc34)ccc2n1C(=O)NC1CC1 [Example 4p] ?
yes (1)

Then what about the molecule C#CCNC(=O)n1c(C)cc2cc(Nc3ccnc4cc(C(=O)N5CC[C@@H](OC)C5)sc34)ccc21 [Example 1p] ?
yes (1)

Then what about the molecule Cc1cc2cc(Oc3ccnc4cc(C(=O)N5C[C@@H](O)[C@@H](O)C5)sc34)ccc2n1C(=O)NC1CC1 [Example 4u] ?
yes (1)

Then what about the molecule C#CCNC(=O)n1c(C)cc2cc(Oc3ccnc4cc(C(=O)N5CCC[C@@H]5CO)sc34)ccc21 [Example 8q] ?
yes (1)
